read-out: Cytochrome P450 (CYP1A2), CYP1A2 (gene 1544); assay: LTEA_HepaRG_CYP1A2: Life Technologies and Expression Analysis (LTEA) Assay for Cytochrome P450 (CYP1A2) using HepaRG (AID 2283479); details: mRNA level, 48 h; actives raise or lower the signal
Activity calls are given as the source filed them. The calls were made as follows: active = hit-call score of the fitted dose curve at least 0.9, where 1 is the maximum; inactive = score below 0.9.
Mark one answer only. Choices: 1 (active), -1 (inactive)

Lookup: Can you look up the reported call for O=C(O)C(F)(F)C(F)(F)C(F)(F)C(F)(F)C(F)(F)C(F)(F)C(F)(F)C(F)(F)C(F)(F)C(F)(F)F for me?
Found: 1

Lookup: Proceed to O=C(O)C(F)(F)C(F)(F)C(F)(F)C(F)(F)C(F)(F)C(F)(F)F
Found: -1

Further cases:
Lookup: Which outcome was entered for the molecule ClC1(Cl)C2(Cl)C3(Cl)C4(Cl)C(Cl)(Cl)C5(Cl)C3(Cl)C1(Cl)C5(Cl)C24Cl (stereo not drawn) in this test?
Found: 1

Lookup: Same again, this time with Oc1cccc2cccnc12
Found: 1
